B1: minF1; the commonest letter at each place (parent)
chain: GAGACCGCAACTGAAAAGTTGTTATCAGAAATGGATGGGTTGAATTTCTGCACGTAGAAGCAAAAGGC

Variants of: B1
MEASUREMENT_DESCRIPTION: fraction ligated after 30 min (ligated reads / total reads); higher = more ligase activity
EXPERIMENTAL_PARAMETERS: with F1*subA RNA substrate (template-directed ligation), 42 °C
ASSAY_ENDPOINT: fraction ligated
Please state the value as a number alone, without comment.

Look over these answered cases.
{"columns": ["CHAIN", "READING"],
 "data": [
  ["GAGACCGCAACTGAAAAGTTGTTAACAGATATGGATGGGTTGAATTTCTGCACGTAGAAGCAAAAGGC [T25A A30T]", 0.0158],
  ["GAGACCGCAACTGAAAAGTTGTTCGCAGAAATGGATGGGTTGAATTTCTGCACGTAGAAGCAAAAGGC [A24C T25G]", 0.0197],
  ["GAGACCGCAACTGAAAAGTTGTTAACAGAAATCGATGGGTTGAATTTCTGCACGTAGAAGCAAAAGGC [T25A G33C]", 0.00366],
  ["GAGACCGCAACTGAAAAGTTGTTATCAGTAATGAATGGGTTGAATTTCTGCACGTAGAAGCAAAAGGC [A29T G34A]", 0.0752],
  ["GAGACCGCAACTGAAAAGTTGTTATCTGAAGTGGATGGGTTGAATTTCTGCACGTAGAAGCAAAAGGC [A27T A31G]", 0.837]
]}

## Task Look up fraction ligated: GAGACCGCAACTGAAAAGTTGTAATCAGAGATGGATGGGTTGAATTTCTGCACGTAGAAGCAAAAGGC [T23A A30G]
## Result 0.358

## Task Look up fraction ligated: GAGACCGCAACTGAAAAGTTGTGATCAGAAATGGTTGGGTTGAATTTCTGCACGTAGAAGCAAAAGGC [T23G A35T]
## Result 0.031
